assay: in vitro; settings: human, hela cells, % viability
viability at 28.5 h, 10 µM strictly under 90% means Fulfilled; at 90% or over means Not fulfilled.

INSERT INTO assay_data (compound, qualitative_label) VALUES
  ('CCCc1cc(CNC(=O)c2ccnn2C(C)C)on1 [CBK282047]', 'Not fulfilled'),
  ('Cc1noc(NS(=O)(=O)c2ccc(NC(=O)c3cc(-c4ccccc4Cl)nc4ccccc34)cc2)c1C [CBK296108]', 'Fulfilled'),
  ('CCCC(=O)c1ccc(S(=O)(=O)N2CCCN(Cc3cccc4cccnc34)CC2)cc1 [CBK062909]', 'Not fulfilled'),
  ('Cc1cc(NS(=O)(=O)c2cc(C(F)(F)F)cc(C(F)(F)F)c2)n(C)n1 [CBK067261]', 'Not fulfilled'),
  ('NC(CC(=O)O)c1ccc(OCc2ccccc2)cc1 (stereo not shown) [CBK286999]', 'Fulfilled');

A record lists COc1ccc(C(NC(=O)[C@H]2CCCN2C(=O)COc2ccccc2)c2ccccc2C)cn1 (stereo partly shown) [CBK076682] . Is its viability at 28.5 h, 10 µM below 90%? Not fulfilled

A record lists CN(Cc1nc(-c2ccncc2)no1)S(=O)(=O)c1ccc(Br)cc1 [CBK268598] . Is its viability at 28.5 h, 10 µM below 90%? Not fulfilled

A record lists CN(C)c1nc(Oc2ccc(OCCOc3ccccc3)nn2)nc(N(C)C)n1 [CBK264976] . Is its viability at 28.5 h, 10 µM below 90%? Not fulfilled
